# system name: T1, Cyno ST2-fc (cyno; human, UniProt A0A2K5UDB8 19-331)
# T1 construct: also called cyno ST2 fused with a human IgG1 Fc tag at the C-terminus
# T1 sequence: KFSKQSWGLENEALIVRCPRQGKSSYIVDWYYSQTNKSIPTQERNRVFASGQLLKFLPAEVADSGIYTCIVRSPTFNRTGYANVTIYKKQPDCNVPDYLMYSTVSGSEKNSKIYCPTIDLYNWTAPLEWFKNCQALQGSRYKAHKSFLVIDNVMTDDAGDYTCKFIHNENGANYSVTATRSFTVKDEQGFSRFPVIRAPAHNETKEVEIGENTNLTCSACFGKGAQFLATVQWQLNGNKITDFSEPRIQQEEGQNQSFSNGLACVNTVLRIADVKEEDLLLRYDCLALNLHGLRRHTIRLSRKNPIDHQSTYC
# procedure text: SPR Biacore X100, antibody on CM5, cyno ST2-fc analyte
# Description: The experiment on the interactions between the anti-human ST2 antibodies and cyno ST2-fc was performed using Biacore X100, and was carried out at 25° C. in HBS-EP (1×) buffer (pH 7.4). Each antibody was immobilized on the surface of CM5 chip using an amino coupling kit. […] Association was monitored for 2 min and dissociation for 10 min, and the sensor surface was regenerated by injecting a solution of glycine at pH 1.5.
measure name: koff (s⁻¹)

binder="5888-116H1+L1 (antibody, V domains shown, murine antibody) VH: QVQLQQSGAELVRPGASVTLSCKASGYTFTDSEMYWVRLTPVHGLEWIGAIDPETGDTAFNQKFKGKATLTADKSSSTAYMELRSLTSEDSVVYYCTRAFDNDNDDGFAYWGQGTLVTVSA VL: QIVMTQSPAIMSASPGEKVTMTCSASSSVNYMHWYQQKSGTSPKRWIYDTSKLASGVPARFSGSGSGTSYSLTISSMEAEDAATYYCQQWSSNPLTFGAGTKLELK" measure_name=koff u=s⁻¹ numeric_result=0.000382
binder="Control antibody CNTO7160 (antibody, human IgG4 S228P, kappa, V domains shown) VH: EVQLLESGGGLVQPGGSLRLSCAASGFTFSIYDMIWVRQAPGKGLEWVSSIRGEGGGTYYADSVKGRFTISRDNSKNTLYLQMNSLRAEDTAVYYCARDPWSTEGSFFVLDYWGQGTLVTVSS VL: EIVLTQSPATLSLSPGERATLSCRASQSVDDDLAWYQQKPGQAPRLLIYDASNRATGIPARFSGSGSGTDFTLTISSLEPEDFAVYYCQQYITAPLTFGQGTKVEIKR" measure_name=koff u=s⁻¹ numeric_result=0.000221
binder="5887-41H+L (antibody, V domains shown, murine antibody) VH: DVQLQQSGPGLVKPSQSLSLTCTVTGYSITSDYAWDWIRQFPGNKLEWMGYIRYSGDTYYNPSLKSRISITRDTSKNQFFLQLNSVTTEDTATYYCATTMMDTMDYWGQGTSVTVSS VL: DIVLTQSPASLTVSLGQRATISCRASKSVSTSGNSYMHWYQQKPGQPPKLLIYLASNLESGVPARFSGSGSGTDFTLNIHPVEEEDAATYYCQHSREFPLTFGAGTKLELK" measure_name=koff u=s⁻¹ numeric_result=0.000721
